Recorded measurements of MIC, one per entry
Tested on: EcR2: Cephalosporinase-Hyperproducing Strain of Escherichia coli
assay: Antibiogram, MIC by the VITEK 1 system
Assay type: cell-based
measurementContext: Escherichia coli; EcR2; Table B2; MIC; read-out: MIC

Below: 3 compounds and their reported MIC.
compound	testReadout	recordedValue
O=C1CN(/N=C/c2ccc([N+](=O)[O-])o2)C(=O)N1 [Nitrofurantoin]	MIC	≤ 25 µg/mL
CCn1cc(C(=O)O)c(=O)c2cc(F)c(N3CCN(C)CC3)cc21 [Pefloxacin]	MIC	≥ 8 µg/mL
CC1(C)S[C@@H]2[C@H](NC(=O)[C@H](N)c3ccc(O)cc3)C(=O)N2[C@H]1C(=O)O [Amoxicillin]	MIC	≥ 32 µg/mL

In the following, a different compound is considered.
Lab book: MIC of CCN[C@@H]1C[C@H](N)[C@@H](O[C@H]2OC(CN)=CC[C@H]2N)[C@H](O)[C@H]1O[C@H]1OC[C@](C)(O)[C@H](NC)[C@H]1O [Netilmicin] noted as ≤ 1 µg/mL

* * *

Test system: ESBL-producing strain of Escherichia coli, having an associated resistance to the aminoglycosides (EcR3)
assay: MIC of the compounds used alone, microdilution in a liquid medium (CLSI)
Assay type: cell-based
measurementContext: Escherichia coli, antibiotic alone (second value of cell), read-out: Initial MICs
Labelling field: enter yes if recorded MIC is less than 1 µg/mL. Enter no if it equals or exceeds that cut-off.

Use the examples below as a reference point.
entrySmiles	group
CO[C@H]1/C=C/O[C@@]2(C)Oc3c(C)c(O)c4c(O)c(c(/C=N/N5CCN(C)CC5)c(O)c4c3C2=O)NC(=O)/C(C)=C\C=C\[C@H](C)[C@H](O)[C@@H](C)[C@@H](O)[C@@H](C)[C@H](OC(C)=O)[C@@H]1C	no
CC1(C)S[C@@H]2[C@H](NC(=O)[C@H](N)c3ccc(O)cc3)C(=O)N2[C@H]1C(=O)O	no

Exercise: Problem: For the compound NC[C@H]1O[C@H](O[C@H]2[C@H](O)[C@@H](O[C@H]3O[C@H](CO)[C@@H](O)[C@H](N)[C@H]3O)[C@H](N)C[C@@H]2N)[C@H](N)C[C@@H]1O , is MIC under 1 µg/mL?
Solution: no

Exercise: Say whether its MIC is strictly beneath 1 µg/mL. Entry: C[C@@H](O)[C@H]1C(=O)N2C(C(=O)O)=C(SCCN=CN)C[C@H]12
Solution: yes

* * *

# maps each entry to its log10 of MIC
Test system: Escherichia coli strain ATCC 25922 (wild type)
assay: MIC of the compounds used alone, microdilution in a liquid medium (CLSI)
Assay type: cell-based
measurementContext: Escherichia coli, ATCC25922; antibiotic alone (second value of cell); E. coli ATCC 25922; read-out: Initial MICs
Excerpt: The MICs of the antibiotics were previously defined for each strain, by the method of microdilution in a liquid medium (CLSI (Clinical and Laboratory Standards Institute), 2003).
Heads up: the numbers are on a log10 scale; they represent MIC in µg/mL.

Use the examples below as a reference point.
compound	targetSystem	log10 of MIC
CO[C@H]1/C=C/O[C@@]2(C)Oc3c(C)c(O)c4c(O)c(c(/C=N/N5CCN(C)CC5)c(O)c4c3C2=O)NC(=O)/C(C)=C\C=C\[C@H](C)[C@H](O)[C@@H](C)[C@@H](O)[C@@H](C)[C@H](OC(C)=O)[C@@H]1C [Rifampicin]	Escherichia coli strain ATCC 25922 (wild type)	0.60
NC[C@H]1O[C@H](O[C@H]2[C@H](O)[C@@H](O[C@H]3O[C@H](CO)[C@@H](O)[C@H](N)[C@H]3O)[C@H](N)C[C@@H]2N)[C@H](N)C[C@@H]1O [Tobramycin]	Escherichia coli strain ATCC 25922 (wild type)	-0.60
CC1(C)S[C@@H]2[C@H](NC(=O)[C@H](N)c3ccc(O)cc3)C(=O)N2[C@H]1C(=O)O [Amoxicillin]	Escherichia coli strain ATCC 25922 (wild type)	0.60
CCN1CCN(C(=O)N[C@@H](C(=O)N[C@@H]2C(=O)N3[C@@H]2SC(C)(C)[C@@H]3C(=O)O)c2ccccc2)C(=O)C1=O [Piperacillin]	Escherichia coli strain ATCC 25922 (wild type)	0.30
CO/N=C(\C(=O)N[C@@H]1C(=O)N2C(C(=O)O)=C(COC(C)=O)CS[C@H]12)c1csc(N)n1 [Cefotaxime]	Escherichia coli strain ATCC 25922 (wild type)	-1.22

// field: log10 of MIC; key: CC(C)(O/N=C(\C(=O)N[C@@H]1C(=O)N2C(C(=O)[O-])=C(C[n+]3ccccc3)CS[C@H]12)c1csc(N)n1)C(=O)O [Ceftazidime] ; value = -0.90

Per the record, C[C@@H](O)[C@H]1C(=O)N2C(C(=O)O)=C(S[C@@H]3CN[C@H](C(=O)Nc4cccc(C(=O)O)c4)C3)[C@H](C)[C@H]12 [Ertapenem] has log10 of MIC of -1.82

// sample NCC[C@H](O)C(=O)N[C@@H]1C[C@H](N)[C@@H](O[C@H]2O[C@H](CN)[C@@H](O)[C@H](O)[C@H]2O)[C@H](O)[C@H]1O[C@H]1O[C@H](CO)[C@@H](O)[C@H](N)[C@H]1O [Amikacin] , its log10 of MIC was -0.60

Recorded result, C[C@@H](O)[C@H]1C(=O)N2C(C(=O)O)=C(SCCN=CN)C[C@H]12 [Imipenem] , log10 of MIC: -0.90

* * *

System: SaR3: Meticillin-Resistant Staphylococcus aureus
assay: Antibiogram by the disk diffusion technique
Assay type: cell-based
measurementContext: Table E2
Measured diameter in mm, listed per entry for reference.
Note: unit mm is implicit; provide only the numeric part.

Reference set (3 entries):
compound	diameter in mm (mm)
CC1COc2c(N3CCN(C)CC3)c(F)cc3c(=O)c(C(=O)O)cn1c23 (stereo not shown)	6
CN[C@H](CC(C)C)C(=O)N[C@H]1C(=O)N[C@@H](CC(N)=O)C(=O)N[C@H]2C(=O)N[C@H]3C(=O)N[C@H](C(=O)N[C@H](C(=O)O)c4cc(O)cc(O)c4-c4cc3ccc4O)[C@H](O)c3ccc(c(Cl)c3)Oc3cc2cc(c3O[C@@H]2O[C@H](CO)[C@@H](O)[C@H](O)[C@H]2O[C@H]2C[C@](C)(N)[C@H](O)[C@H](C)O2)Oc2ccc(cc2Cl)[C@H]1O	28
CC(=O)NC[C@H]1CN(c2ccc(N3CCOCC3)c(F)c2)C(=O)O1	26

Query CC(=O)O[C@H]1C[C@@]2(C)[C@@H](C[C@@H](O)[C@H]3[C@@]4(C)CC[C@@H](O)[C@@H](C)[C@@H]4CC[C@@]32C)/C1=C(\CCC=C(C)C)C(=O)O yields diameter in mm of 29

* * *

Test system: PaR2: Pseudomonas aeruginosa
Type: cell-based
measurementContext: Table G2
Label Criterion met when diameter in mm >= 20 mm; otherwise Criterion not met.

Below, 4 molecules whose answers are already recorded.
entrySmiles	group
NCC[C@H](O)C(=O)N[C@@H]1C[C@H](N)[C@@H](O[C@H]2O[C@H](CN)[C@@H](O)[C@H](O)[C@H]2O)[C@H](O)[C@H]1O[C@H]1O[C@H](CO)[C@@H](O)[C@H](N)[C@H]1O	Criterion met
CC1(C)S[C@@H]2[C@H](NC(=O)[C@H](C(=O)O)c3ccsc3)C(=O)N2[C@H]1C(=O)O	Criterion not met
CO[C@H]1/C=C/O[C@@]2(C)Oc3c(C)c(O)c4c(O)c(c(/C=N/N5CCN(C)CC5)c(O)c4c3C2=O)NC(=O)/C(C)=C\C=C\[C@H](C)[C@H](O)[C@@H](C)[C@@H](O)[C@@H](C)[C@H](OC(C)=O)[C@@H]1C	Criterion met
C[C@@H]1O[C@@H]1P(=O)(O)O	Criterion not met

Exercise: Does diameter in mm meet or surpass 20 mm for CCN1CCN(C(=O)N[C@@H](C(=O)N[C@@H]2C(=O)N3[C@@H]2SC(C)(C)[C@@H]3C(=O)O)c2ccccc2)C(=O)C1=O ?
Solution: Criterion met

Exercise: Is it the case that CCN[C@@H]1C[C@H](N)[C@@H](O[C@H]2OC(CN)=CC[C@H]2N)[C@H](O)[C@H]1O[C@H]1OC[C@](C)(O)[C@H](NC)[C@H]1O has diameter in mm reaching or exceeding 20 mm?
Solution: Criterion not met

* * *

System: EcR3: ESBL-Producing Escherichia coli
assay: Antibiogram by the disk diffusion technique
Type: cell-based
measurementContext: Table C1, against Dmin Dmax
testReadout: Results

entrySmiles	Results
CO[C@@]1(NC(=O)Cc2cccs2)C(=O)N2C(C(=O)O)=C(COC(N)=O)CS[C@@H]21	Intermediate
CC(=O)OCC1=C(C(=O)O)N2C(=O)[C@@H](NC(=O)Cc3cccs3)[C@H]2SC1	Resistant
C[C@@H]1O[C@@H]1P(=O)(O)O	Susceptible
CC1(C)S[C@@H]2[C@H](NC(=O)[C@H](C(=O)O)c3ccsc3)C(=O)N2[C@H]1C(=O)O	Resistant
CO/N=C(\C(=O)N[C@@H]1C(=O)N2C(C(=O)O)=C(COC(C)=O)CS[C@H]12)c1csc(N)n1	Intermediate

Form: compound = CCN[C@@H]1C[C@H](N)[C@@H](O[C@H]2OC(CN)=CC[C@H]2N)[C@H](O)[C@H]1O[C@H]1OC[C@](C)(O)[C@H](NC)[C@H]1O ; Results = Resistant

O=C(O)c1cn(C2CC2)c2cc(N3CCNCC3)c(F)cc2c1=O yielded Results of Susceptible

# compound CC1(C)S[C@@H]2[C@H](NC(=O)[C@H](N)c3ccc(O)cc3)C(=O)N2[C@H]1C(=O)O ; its Results = Resistant
